Where these numbers come from: patent US5646148A

# target of assay: HIV protease (Human immunodeficiency virus type 1 group M subtype B, UniProt P04585)
result type: IC50

Q) Hello, I am looking for reported IC50 with HIV protease (Human immunodeficiency virus type 1 group M subtype B, UniProt P04585) for CC(C)(C)NC(=O)C1CN(Cc2cnc3occc3c2)CCN1CC(O)CC(Cc1ccccc1)C(=O)NC1c2ccccc2CC1O (stereo not shown) . Could you help?
A) ~0.27 nM
